Target: XRCC6 X-ray repair cross-complementing protein 6 (Homo sapiens, UniProt P12956)
Construct: isoTOP-ABPP experiments performed in cell lysates (in vitro); endogenous in cells; host or cells: soluble proteome of human cancer cell lines (MDA-MB-231; Ramos and Jurkat also prepared)
Sequence (P12956 2-609 limits assumed): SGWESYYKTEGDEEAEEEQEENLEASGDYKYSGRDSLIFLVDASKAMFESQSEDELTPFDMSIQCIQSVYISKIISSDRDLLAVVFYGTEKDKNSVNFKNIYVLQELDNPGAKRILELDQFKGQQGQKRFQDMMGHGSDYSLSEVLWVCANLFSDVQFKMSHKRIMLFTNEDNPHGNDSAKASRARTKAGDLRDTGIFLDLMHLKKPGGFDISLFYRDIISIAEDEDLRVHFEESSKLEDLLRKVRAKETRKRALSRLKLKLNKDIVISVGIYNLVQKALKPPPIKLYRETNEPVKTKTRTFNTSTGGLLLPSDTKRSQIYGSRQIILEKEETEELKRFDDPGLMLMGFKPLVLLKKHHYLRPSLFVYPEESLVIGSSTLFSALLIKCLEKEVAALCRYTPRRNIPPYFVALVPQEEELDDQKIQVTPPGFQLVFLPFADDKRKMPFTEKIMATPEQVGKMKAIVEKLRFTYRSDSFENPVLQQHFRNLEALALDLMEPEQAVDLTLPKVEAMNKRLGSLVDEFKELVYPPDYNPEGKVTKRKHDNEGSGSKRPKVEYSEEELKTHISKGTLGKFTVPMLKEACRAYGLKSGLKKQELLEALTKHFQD
Sequence (P13010 2-732 partner limits assumed): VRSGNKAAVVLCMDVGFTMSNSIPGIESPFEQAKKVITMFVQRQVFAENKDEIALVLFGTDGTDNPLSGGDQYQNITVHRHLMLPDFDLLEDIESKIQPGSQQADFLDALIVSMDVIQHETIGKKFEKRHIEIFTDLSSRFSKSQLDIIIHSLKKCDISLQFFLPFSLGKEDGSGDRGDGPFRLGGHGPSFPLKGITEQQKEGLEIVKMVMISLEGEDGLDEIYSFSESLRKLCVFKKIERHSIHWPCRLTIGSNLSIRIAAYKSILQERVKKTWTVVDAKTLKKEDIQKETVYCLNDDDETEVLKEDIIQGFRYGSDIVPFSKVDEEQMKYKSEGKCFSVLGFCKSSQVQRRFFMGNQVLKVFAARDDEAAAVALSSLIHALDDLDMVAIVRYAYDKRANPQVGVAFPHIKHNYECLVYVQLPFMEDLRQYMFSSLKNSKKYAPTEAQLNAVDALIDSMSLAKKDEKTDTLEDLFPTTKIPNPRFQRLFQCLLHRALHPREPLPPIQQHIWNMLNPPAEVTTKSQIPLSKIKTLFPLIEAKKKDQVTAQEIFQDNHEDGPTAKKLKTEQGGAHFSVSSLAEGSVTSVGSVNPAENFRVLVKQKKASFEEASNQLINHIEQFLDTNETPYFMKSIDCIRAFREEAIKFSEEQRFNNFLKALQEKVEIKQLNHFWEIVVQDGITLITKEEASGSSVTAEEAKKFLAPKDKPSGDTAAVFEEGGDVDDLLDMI
Assay: competitive isoTOP-ABPP
Type: binding
Conditions: 50 uM, 231 sol, in vitro
Could you please report measured isoTOP-ABPP reactivity ratio at lysine P12956_K351 for the items listed next?

- molecule: "Cn1cc(CC(=O)Oc2ccc([N+](=O)[O-])cc2[N+](=O)[O-])c2ccccc21 [fragment 32]"
  value reported: 13.4
- molecule: "COc1cc(CCC(=O)Oc2ccc([N+](=O)[O-])cc2[N+](=O)[O-])cc(OC)c1OC [fragment 33]"
  value reported: 2.5
- molecule: "O=C(Oc1c(F)c(F)c(F)c(F)c1F)c1ccc2ccccc2n1 [fragment 25]"
  value reported: 1.6

Provide each entry's isoTOP-ABPP reactivity ratio at lysine P12956_K351 from the list below.
1. O=C(Oc1c(F)c(F)c(F)c(F)c1F)C1CCN(C(=O)OCc2ccccc2)CC1 [fragment 24]
2. CCn1cc(C(=O)Oc2c(F)c(F)c(F)c(F)c2F)c(=O)c2ccc(C)nc21 [fragment 28]

1: 1.3; 2: 1.9

Please give isoTOP-ABPP reactivity ratio at lysine P12956_K351, item by item, for the list that follows.
1. O=C(CCc1cn(-c2ccccc2)nc1-c1ccccc1)Oc1ccc([N+](=O)[O-])cc1[N+](=O)[O-] [fragment 29]
2. O=C(CCc1coc2cc(F)ccc2c1=O)Oc1c(F)c(F)c(F)c(F)c1F [fragment 26]
3. O=C(CN1C(=O)c2ccccc2C1=O)Oc1c(F)c(F)c(F)c(F)c1F [fragment 27]
4. O=C(Oc1ccc([N+](=O)[O-])cc1[N+](=O)[O-])C(c1ccccc1)c1ccccc1 [fragment 30, 2,4-Dinitrophenyl 2,2-diphenylacetate]
5. O=C(Oc1ccc([N+](=O)[O-])cc1[N+](=O)[O-])c1cc(C(F)(F)F)cc(C(F)(F)F)c1 [fragment 31]

1. 3.2
2. 2.1
3. 3.1
4. 20.0
5. 2.6

* * *

Molecular target: LMNA Prelamin-A/C (Homo sapiens, UniProt P02545)
Construct: isoTOP-ABPP experiments performed in cell lysates (in vitro); endogenous in cells; host or cells: MDA-MB-231 soluble lysate
Sequence (P02545 1-664): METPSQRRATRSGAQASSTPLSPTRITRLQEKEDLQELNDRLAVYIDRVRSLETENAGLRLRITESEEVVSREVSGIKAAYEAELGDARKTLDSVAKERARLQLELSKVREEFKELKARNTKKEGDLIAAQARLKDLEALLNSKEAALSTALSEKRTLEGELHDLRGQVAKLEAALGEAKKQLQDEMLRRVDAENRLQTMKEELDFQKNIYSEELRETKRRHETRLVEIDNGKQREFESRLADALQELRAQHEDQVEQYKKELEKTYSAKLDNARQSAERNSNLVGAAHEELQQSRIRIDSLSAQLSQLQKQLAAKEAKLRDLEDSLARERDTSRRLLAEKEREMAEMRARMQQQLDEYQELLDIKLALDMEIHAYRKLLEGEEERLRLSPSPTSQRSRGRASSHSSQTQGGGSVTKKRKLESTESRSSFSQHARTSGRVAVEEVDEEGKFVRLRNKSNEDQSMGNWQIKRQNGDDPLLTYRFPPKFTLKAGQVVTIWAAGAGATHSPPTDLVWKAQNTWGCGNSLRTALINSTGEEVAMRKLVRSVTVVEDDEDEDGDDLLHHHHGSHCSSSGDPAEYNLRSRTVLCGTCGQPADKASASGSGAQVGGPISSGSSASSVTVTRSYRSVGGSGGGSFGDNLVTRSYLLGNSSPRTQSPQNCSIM
Assay: competitive isoTOP-ABPP
Assay type: binding
Conditions: 50 uM, in vitro, sol, 231
Method: In vitro covalent fragment treatment for isoTOP-ABPP. All compounds were made up as solutions in DMSO (100×) and were used at a final concentration of 50 μM for activated esters and 100 μM for guanidinylating agents. […] R value calculation and processing. The ratios of light and heavy MS1 peaks for each unique peptide were quantified with a CIMAGE software using default parameters (3 MS1 acquisitions per peak and signal to noise threshold set to 2.5). […]
Is isoTOP-ABPP ratio (R) at liganded lysine P02545_K135 at least 1? Then yes. If not, no.

Is the recorded value of isoTOP-ABPP ratio (R) at liganded lysine P02545_K135 equal to or greater than 1 for this compound? O=C(Oc1ccc([N+](=O)[O-])cc1[N+](=O)[O-])c1ccc(-c2ccccc2)cc1 [fragment 37]
no
